binders and their reported ELISA endpoint dilution titre
# target.of.assay: H1 A/New Caledonia/20/1999 haemagglutinin, wild-type trimeric protein (Influenza A virus A/New …, UniProt Q6WG00, strain)
# method: ELISA

binder | ELISA endpoint dilution titre
CR6261 germline variant sCDR H3, soluble IgG (antibody, V domains shown) VH: QVQLVQSGAEVKKPGSSVKVSCKASGGTFSSYAISWVRQAPGQGLEWMGGIIPIFGTANYAQKFQGRVTITADESTSTAYMELSSLRSEDTAVYYCAKHMGYQVRETMDVWGKGTTVTVSS VL: QSVLTQPPSVSAAPGQKVTISCSGSSSNIGNNYVSWYQQLPGTAPKLLIYDNNKRPSGIPDRFSGSKSGTSATLGITGLQTGDEADYYCGTWDSSLSAYVVFGGGTKLTVL | > 100 µg/mL
CR6261 germline variant sCDR H1, soluble IgG (antibody, V domains shown) VH: QVQLVQSGAEVKKPGSSVKVSCKASGGPFRSYAISWVRQAPGQGLEWMGGIIPIFGTANYAQKFQGRVTITADESTSTAYMELSSLRSEDTAVYYCAKHMGYQLRETMDVWGKGTTVTVSS VL: QSVLTQPPSVSAAPGQKVTISCSGSSSNIGNNYVSWYQQLPGTAPKLLIYDNNKRPSGIPDRFSGSKSGTSATLGITGLQTGDEADYYCGTWDSSLSAYVVFGGGTKLTVL | 0.15 µg/mL
CR6261 germline variant sCDR H1/sCDR H2/sFR3, soluble IgG (antibody, V domains shown) VH: QVQLVQSGAEVKKPGSSVKVSCKASGGPFRSYAISWVRQAPGQGLEWMGGIIPIFGTTKYAPKFQGRVTITADDFAGTVYMELSSLRSEDTAVYYCAKHMGYQLRETMDVWGKGTTVTVSS VL: QSVLTQPPSVSAAPGQKVTISCSGSSSNIGNNYVSWYQQLPGTAPKLLIYDNNKRPSGIPDRFSGSKSGTSATLGITGLQTGDEADYYCGTWDSSLSAYVVFGGGTKLTVL | 0.00133 µg/mL
CR6261 germline variant sCDR H1/sFR3, soluble IgG (antibody, V domains shown) VH: QVQLVQSGAEVKKPGSSVKVSCKASGGPFRSYAISWVRQAPGQGLEWMGGIIPIFGTANYAQKFQGRVTITADDFAGTVYMELSSLRSEDTAVYYCAKHMGYQLRETMDVWGKGTTVTVSS VL: QSVLTQPPSVSAAPGQKVTISCSGSSSNIGNNYVSWYQQLPGTAPKLLIYDNNKRPSGIPDRFSGSKSGTSATLGITGLQTGDEADYYCGTWDSSLSAYVVFGGGTKLTVL | 0.00133 µg/mL
CR6261 germline variant sCDR H2, soluble IgG (antibody, V domains shown) VH: QVQLVQSGAEVKKPGSSVKVSCKASGGTFSSYAISWVRQAPGQGLEWMGGIIPIFGTTKYAPKFQGRVTITADESTSTAYMELSSLRSEDTAVYYCAKHMGYQLRETMDVWGKGTTVTVSS VL: QSVLTQPPSVSAAPGQKVTISCSGSSSNIGNNYVSWYQQLPGTAPKLLIYDNNKRPSGIPDRFSGSKSGTSATLGITGLQTGDEADYYCGTWDSSLSAYVVFGGGTKLTVL | > 100 µg/mL

Values from paper PMC7095019
